Molecular target: rat A1 receptors (rA1) (Rattus norvegicus, UniProt P25099)
Construct: to A1 receptors from rat cerebral cortical membranes; from tissue; host or cells: rat cerebral cortical (brain) membranes
Sequence (P25099 whole entry): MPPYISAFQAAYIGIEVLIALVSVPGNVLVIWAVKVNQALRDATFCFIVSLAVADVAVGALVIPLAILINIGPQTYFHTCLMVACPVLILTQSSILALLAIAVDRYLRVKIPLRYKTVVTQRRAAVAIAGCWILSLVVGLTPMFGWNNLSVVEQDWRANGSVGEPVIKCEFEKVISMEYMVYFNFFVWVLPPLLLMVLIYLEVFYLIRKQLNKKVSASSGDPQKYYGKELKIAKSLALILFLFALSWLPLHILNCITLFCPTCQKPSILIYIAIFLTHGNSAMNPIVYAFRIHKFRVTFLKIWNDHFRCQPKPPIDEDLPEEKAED
Assay: Displacement of [3H]R-PIA binding in rat brain (cerebral cortical) membranes
Details: Table 2; read-out: rA1 Ki or IC50
Experimental: Bruns, R. F. et al., Naunyn-Schmiedeberg's Arch. […] Binding of [^3H]R-N^6-phenylisopropyladenosine. Schwabe, U. et al., Naunyn-Schmiedeberg's Arch. […] (Dupont NEN, Boston, Mass.) to A2A receptors from rat striatal membranes was performed as described. […] All non-radioactive compounds were initially dissolved in DMSO, and diluted with buffer to the final concentration, where the amount of DMSO never exceeded 2%. […]
Classification by Ki | ranges: Low: < 20 nM; Mid: ≥ 20 nM and < 40 nM; High: ≥ 40 nM

Illustrative cases are given below, each with its answer.
{"columns": ["Structure", "Target entity", "Category"],
 "data": [
  ["CCCn1c(=O)c2[nH]c(-c3ccc(OCC(=O)N(CC(=O)OCC)CC(=O)OCC)cc3)nc2n(CCC)c1=O", "rat A1 receptors (rA1) (Rattus norvegicus, UniProt P25099)", "Mid"],
  ["CCCn1c(=O)c2[nH]c(-c3ccc(OCC(=O)NCc4ccccc4)cc3)nc2n(CCC)c1=O", "rat A1 receptors (rA1) (Rattus norvegicus, UniProt P25099)", "Low"],
  ["CCCn1c(=O)c2[nH]c(-c3ccc(OCC(=O)Nc4ccc(C#N)cc4)cc3)nc2n(CCC)c1=O", "rat A1 receptors (rA1) (Rattus norvegicus, UniProt P25099)", "Low"]
]}

Continue with the compound presented below.
Prompt line: State the band of "CCCn1c(=O)c2[nH]c(-c3ccc(OCC(=O)Nc4ccc(C(=O)OC)cc4)cc3)nc2n(CCC)c1=O"
Response line: Mid

* * *

Molecular target: rat A2A receptors (rA2A) (Rattus norvegicus)
Construct: to A2A receptors from rat striatal membranes was performed as described; from tissue; host or cells: rat striatal membranes
Sequence (P30543 whole entry): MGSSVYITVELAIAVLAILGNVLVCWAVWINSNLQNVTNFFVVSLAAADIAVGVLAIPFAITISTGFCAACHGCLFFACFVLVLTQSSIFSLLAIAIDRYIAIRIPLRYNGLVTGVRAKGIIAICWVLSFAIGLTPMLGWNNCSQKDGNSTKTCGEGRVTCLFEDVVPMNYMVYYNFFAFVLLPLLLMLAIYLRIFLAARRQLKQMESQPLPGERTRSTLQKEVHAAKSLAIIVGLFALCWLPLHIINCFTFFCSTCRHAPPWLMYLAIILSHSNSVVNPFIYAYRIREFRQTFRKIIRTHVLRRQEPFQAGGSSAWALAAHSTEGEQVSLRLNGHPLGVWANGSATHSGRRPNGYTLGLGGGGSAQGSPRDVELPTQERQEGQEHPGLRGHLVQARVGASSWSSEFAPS
Assay: Displacement of [3H]CGS 21680 binding in rat striatal membranes
Settings: Table 2; read-out: rA2A Ki or IC50
pKi: −log10 of the molar value.
Tag: True if measured pKi is not below 6, False if it is.

Illustrative cases are given below, each with its answer.
{"columns": ["Compound", "Category"],
 "data": [
  ["CCCn1c(=O)c2[nH]c(-c3ccc(OCC(=O)Nc4ccccc4C(C)=O)cc3)nc2n(CCC)c1=O [Compound 18]", "True"],
  ["CCCn1c(=O)c2[nH]c(-c3ccc(OCC(=O)Nc4ccc(C(=O)OC)cc4)cc3)nc2n(CCC)c1=O [Compound 21]", "True"],
  ["CCCn1c(=O)c2[nH]c(-c3ccc(OCC(=O)Nc4ccc(C(=O)O)cc4)cc3)nc2n(CCC)c1=O [Compound 24]", "True"],
  ["CCCn1c(=O)c2[nH]c(-c3ccc(OCC(=O)Nc4ccccc4)cc3)nc2n(CCC)c1=O [Compound 12]", "True"]
]}

Continue with the compound presented below.
Prompt line: Decide: is the reported value of pKi for CCCn1c(=O)c2[nH]c(-c3ccc(OCC(=O)N(Cc4ccccc4)Cc4ccccc4)cc3)nc2n(CCC)c1=O [Compound 15] equal to or greater than 6?
Response line: False

src = patent US6545002B1
